tested on: hog liver carboxyesterase (HLE); assay: Hog liver carboxyesterase (HLE)-catalyzed hydrolysis/deprotection followed by HPLC; assay type: in vitro ADME; settings: pig, hog liver carboxyesterase (HLE); HLE 26 units mL^-1, pH 7.5, 37 °C, I = 0.1 mol L^-1; read-out: t1/2 Reaction A (enzymatic deacetylation of triester, disappearance of starting material)

MOLECULE | half-life at 0.4 mmol L^-1
CC(=O)OCC(C#N)(COP(=O)(OCC1OC(n2cc(C)c(=O)[nH]c2=O)CC1O)OCC(C#N)(COC(C)=O)C(=O)NCCc1ccccc1)C(=O)NCCc1ccccc1 (stereo not shown) [compound 1] | 3.8 min

###

test: Non-enzymatic hydrolysis (hydrolytic stability) in buffer followed by RP HPLC; format: physicochemical; conditions: aqueous buffer (glycine, HEPES or MES buffers), no enzyme, pH 7.5, 37 °C, read-out: half-life, hydrolysis of the first acetic ester linkage (Reaction A) (converted)

COMPOUND | half-life at 0.4 mmol L^-1, h
CC(=O)OCC(C#N)(COP(=O)(OCC1OC(n2cc(C)c(=O)[nH]c2=O)CC1O)OCC(C#N)(COC(C)=O)C(=O)NCCc1ccccc1)C(=O)NCCc1ccccc1 (stereo not shown) | 28
